Assay: RP, Waters ACQUITY UPLC BEH C18, 50 × 2.1 mm, 1.7 µm, 40 °C, 0.6 mL/min, estimated dead time 0.18 min; A: water + 0.1% formic acid, pH 3; B: acetonitrile + 0.1% formic acid, pH 3; gradient (min/%B) 0/5 7/100 8/100
Conditions: stereoisomer not certain
Kindly supply the reported LC retention time values for the records listed here.
Note: unit min is implicit; provide only the numeric part.

IN: Which LC retention time value belongs to CC[C@H]1NC2C[C@@]3(C(=O)N(OC)c4ccccc43)C3CC1C2CO3 (stereo partly drawn) ?
OUT: 1.79

IN: Which value of LC retention time has been reported for C=CCc1ccc(O)c(-c2cc(CC=C)ccc2O)c1 [5,5'-bis(prop-2-en-1-yl)-[1,1'-biphenyl]-2,2'-diol] in the records?
OUT: 2.78

IN: Request the reported LC retention time associated with COc1c(O)c(C(=O)C2CC=C(CCC=C(C)C)CC2c2ccccc2)c(OC)c(OC)c1OC (stereo not drawn)
OUT: 5.69

IN: Using the record for COc1ccc2c(c1)CC1c3c(cc4c(c3-2)OCO4)CCN1C (stereo not drawn) , report its LC retention time.
OUT: 2.15

IN: # query: LC retention time of entry CCCCCCCCCCCC(=O)OC12CC(C)C3(O)C(C4OC4(CO)C(O)C4(O)C(=O)C(C)=CC43)C1C2(C)C (stereo not drawn)
OUT: 5.96

IN: Given the compound COc1ccc(-c2oc3cc(O)c(OC)c(O)c3c(=O)c2OC)cc1 , what is its reported LC retention time?
OUT: 3.08

IN: Given the entry Oc1ccc(C2Oc3cc(O)cc4c3C2c2cc(O)cc(O)c2C(c2ccc(O)cc2)C2c3cc(O)cc(O)c3C(c3ccc(O)cc3)C42)cc1 (stereo not drawn) , report its measured LC retention time.
OUT: 2.23

IN: So what's the measured LC retention time for this one? C[C@H](C/C=C/C(C)(C)O)[C@H]1CC[C@@]2(C)C3C(=O)C=C4C(CCC(O)C4(C)C)[C@]3(C)CC[C@]12C (stereo partly drawn)
OUT: 4.37

---

Test: RP, Waters ACQUITY UPLC BEH C18, 50 × 2.1 mm, 1.7 µm, 40 °C, 0.6 mL/min, estimated dead time 0.18 min; A: water + 0.1% formic acid, pH 3; B: acetonitrile + 0.1% formic acid, pH 3; gradient (min/%B) 0/5 7/100 8/100
Conditions: stereoisomer not certain
Kindly supply the reported LC retention time values for the records listed here.
Answer with the number, then the unit.

IN: What value of LC retention time has been reported for the following molecule? CN1CCc2ccc(O)c3c2C1Cc1cc2c(cc1O3)OCO2 (stereo not given)
OUT: 1.4 min

IN: Query (molecule): O=C1CC(c2ccc(O)cc2)Oc2c1c(O)cc(O)c2C1C(=O)c2c(O)cc(O)cc2OC1c1ccc(O)cc1 (stereo not given) ; field requested: LC retention time
OUT: 2.36 min

IN: For the molecule COc1cc(/C=C/C(=O)OCC(Cc2ccc(O)c(OC)c2)C(COC(C)=O)Cc2ccc(O)c(OC)c2)ccc1O (stereo not given) , what LC retention time is on record?
OUT: 2.3 min

IN: Report LC retention time for C[C@@H]1O[C@@H](Oc2c(-c3ccc(O)c(O)c3)oc3cc(O)cc(O)c3c2=O)[C@H](O)[C@H](O)[C@H]1O please.
OUT: 0.266 min

IN: Given the molecule CC1=CC(C2OC3CCCN4C(C5CC(C)C(=O)O5)CCC4C3C2C)OC1=O (stereo not given) , what is its reported LC retention time?
OUT: 1.27 min

IN: Return reported LC retention time; argument: CC(=O)O[C@@H](C[C@@H](C)C1=C2CC(O)C3[C@@]4(C)CCC(=O)C(C)(C)C4CC[C@]3(C)[C@@]2(C)CC1)[C@H]1OC1(C)C (stereo not given in full)
OUT: 5.4 min

IN: Endpoint output: LC retention time of Cn1c(-c2ccc3c(c2)OCO3)cc(=O)c2ccccc21 . Value?
OUT: 2.43 min

IN: I am curious: what LC retention time value has been reported for COc1ccc(C(=O)[C@@H](c2coc3cc(O)ccc3c2=O)C(c2ccc(O)cc2)c2ccc(O)cc2)c(OC)c1 ?
OUT: 3.68 min

IN: # input molecule: COC(=O)CC(C1=C2OC(=O)C(C(=O)CC(C)C)=C(O)C2(CC=C(C)C)CC(CC=C(C)C)C1(C)C)c1ccccc1 (stereo not given) ; wanted: its LC retention time
OUT: 6.83 min

IN: Bench note: what LC retention time did COc1cc(C=O)c([N+](=O)[O-])cc1OC show?
OUT: 0.304 min

IN: Could you tell me which LC retention time is on file for CN1CCc2cc3c(c4c2C1CC41C=CC(=O)C=C1)OCO3 (stereo not given) ?
OUT: 1.08 min

IN: Look at this molecule and give its reported LC retention time. COc1ccc(Cc2nccc3cc(OC)c(OC)cc23)cc1OC [1-[(3,4-dimethoxyphenyl)methyl]-6,7-dimethoxyisoquinoline]
OUT: 1.79 min

IN: Request the reported LC retention time associated with O=C(/C=C/c1ccc(O)cc1)OC[C@H]1O[C@@H](Oc2cc(O)c3c(=O)cc(-c4ccc(O)cc4)oc3c2)[C@H](OC(=O)/C=C/c2ccc(O)cc2)[C@@H](O)[C@@H]1O
OUT: 3.15 min

IN: Recorded LC retention time for C=C1CC23CCC4C(C)(C(=O)O)CCCC4(C)C2CCC1C3 (stereo not given) , please?
OUT: 5.69 min

IN: Could you tell me which LC retention time is on file for CCCCCCCCCCCCO[C@@H]1O[C@@H](C)[C@H](O[C@@H]2O[C@@H](C)[C@H](OC(C)=O)[C@@H](O[C@@H]3O[C@@H](C)[C@H](OC(C)=O)[C@@H](O[C@@H]4O[C@@H](C)[C@H](OC(C)=O)[C@@H](O)[C@H]4O)[C@H]3OC(C)=O)[C@H]2O)[C@@H](O)[C@H]1O ?
OUT: 5.82 min

IN: // returns reported LC retention time for input COC1C2(O)COC3=CC(=O)C=CC31c1cc(O)c(O)cc1C2 (stereo not given)
OUT: 1.08 min

IN: May I ask what LC retention time has been recorded for CC(C)=CC1CC(C2CCC3(C)C4=CCC5C(C)(C)C(O)CCC5(C)C4CC(C=O)=C23)C(O)O1 (stereo not given) ?
OUT: 5.19 min

IN: I am curious: what LC retention time value has been reported for COC(=O)C1=CC(O)C23OC1CC2(C)CC[C@H](C(C)C)O3 (stereo not given in full) ?
OUT: 3.33 min

IN: What value of measured LC retention time is listed for CCCCCCCCCCCCC[C@@H]1CCC[C@@H](C)N1 ?
OUT: 4.58 min

IN: Which LC retention time is listed for COc1ccc(-c2oc3cc(O)c(OC)c(O)c3c(=O)c2OC)cc1O ?
OUT: 2.2 min

IN: State the recorded LC retention time for this entry: CCCC(CC(=O)O)C1=C2OC(=O)C(C(=O)C(C)CC)=C(O)C2(CC=C(C)C)CC(CC=C(C)C)C1(C)C (stereo not given)
OUT: 6.55 min

IN: Quick one: LC retention time for COc1cc(CCN(C)C)c2ccc3cc4c(c5c3c2c1OC5)OCO4 ?
OUT: 2.24 min

IN: Find the recorded LC retention time belonging to CC1CCC2(OC1)OC1CC3C4C(O)C(=O)C5(O)C(O)C(O)C(O)C(O)C5(C)C4CCC3(C)C1C2C (stereo not given) and report it.
OUT: 3.19 min

IN: Return reported LC retention time; argument: C=C(C(=O)C(OC(C)=O)C(C)C1C(OC(C)=O)CC2(C)C3CCC4C(C)C(=O)C=CC45CC35CCC12C)C(C)CO (stereo not given)
OUT: 4.41 min

IN: Return reported LC retention time; argument: CC(C)=CC1CC(C2CCC3(C)C4=CCC5C(C)(C)C(=O)CCC5(C)C4CC(C=O)=C23)C(O)O1 (stereo not given)
OUT: 4.03 min

IN: Name the reported LC retention time value associated with the molecule CC(CC[C@@H](C)[C@H]1CCC2C3C[C@H](OS(=O)(=O)O)[C@H]4C[C@H](OS(=O)(=O)O)C(OS(=O)(=O)O)C[C@]4(C)C3CC[C@@]21C)C(C)(C)C (stereo not given in full)
OUT: 1.41 min

IN: Can you look up the measured LC retention time of CC(C)=CCc1c(O)cc2oc(-c3ccc(O)cc3)c(O)c(=O)c2c1O for me?
OUT: 3.98 min

IN: I'd like to know its LC retention time. The molecule in question is COc1ccc([C@@]23Oc4cc5c(c(OC)c4[C@]2(O)[C@H](O)[C@H](C(=O)N(C)C)[C@H]3c2ccccc2)OCO5)cc1
OUT: 3.26 min

IN: Need LC retention time of CCCCCCCCCCCCCCCC(=O)OC12CC(C)C3(O)C(C4OC4(CO)C(O)C4(O)C(=O)C(C)=CC43)C1C2(C)C (stereo not given) , thanks.
OUT: 6.96 min

IN: Looking for the measured LC retention time of CCC(C)C(=O)C1=C(O)C2(CC=C(C)C)CC(CCC(C)(C)OC(=O)C(F)(F)F)C(C)(C)C(C(CC(=O)O)c3ccccc3)=C2OC1=O (stereo not given) , can you help?
OUT: 6.11 min

Measured values drawn from the RepoRT retention time repository for this set.
